- System: Staphylococcus aureus (SA; MSSA SH1000)
- Protocol Description: Minimum inhibitory concentration (MIC)
- Format: cell-based
- Reported Conditions: Table 6
Please respond with reported MIC SA for every item in the list.
Numbers only, in µM.

# Compound, MIC SA [µM]
rows = [
    ("C=CC[N+](CCC[N+](C)(C)CCCCCCCCCCCCCCCCCC)(CCC[N+](C)(C)CCCCCCCCCCCCCCCCCC)CCC[N+](C)(C)CCCCCCCCCCCCCCCCCC [sT-18,18,18,3A]", 2),
    ("CCCCCCCCCCCCCC[N+](C)(C)CCC[N+](C)(CCC[N+](C)(C)CCCCCCCCCCCCCC)CCC[N+](C)(C)CCCCCCCCCCCCCC [sT-14,14,14,1]", 4),
    ("CCCCCCCCCCC[N+](C)(C)CCC[N+](CCC[N+](C)(C)CCCCCCCCCCC)(CCC[N+](C)(C)CCCCCCCCCCC)Cc1ccccc1 [sT-11,11,11,Bn]", 0.25),
    ("C=CC[N+](CCC[N+](C)(C)CCCCCCCCCC)(CCC[N+](C)(C)CCCCCCCCCC)CCC[N+](C)(C)CCCCCCCCCC [sT-10,10,10,3A]", 0.5),
    ("C=CC[N+](CCC[N+](C)(C)CCCCCCCC)(CCC[N+](C)(C)CCCCCCCC)CCC[N+](C)(C)CCCCCCCC [sT-8,8,8,3A]", 1),
    ("CCCCCCCCCCCCC[N+](C)(C)CCCN(CCC[N+](C)(C)CCCCCCCCCCCCC)CCC[N+](C)(C)CCCCCCCCCCCCC [sT-13,13,13,0]", 1),
]

Dear reader, for each entry below, please note its MIC SA.
1. CCCCCCCCCCCC[N+](C)(C)CCCN(CCC[N+](C)(C)CCCCCCCCCCCC)CCC[N+](C)(C)CCCCCCCCCCCC [sT-12,12,12,0]
2. CCCCCCCCCCCCCCCC[N+](C)(C)CCCN(CCC[N+](C)(C)CCCCCCCCCCCCCCCC)CCC[N+](C)(C)CCCCCCCCCCCCCCCC.[Br-].[Br-].[Br-] [sT-16,16,16,0]
3. CCCCCCCCCC[N+](C)(C)CCC[N+](C)(CCC[N+](C)(C)CCCCCCCCCC)CCC[N+](C)(C)CCCCCCCCCC [sT-10,10,10,1]
4. CCCCCCCCCCCC[N+](C)(C)CCC[N+](CCC[N+](C)(C)CCCCCCCCCCCC)(CCC[N+](C)(C)CCCCCCCCCCCC)Cc1ccccc1 [sT-12,12,12,Bn]
5. CCCCCCCC[N+](C)(C)CCC[N+](C)(CCC[N+](C)(C)CCCCCCCC)CCC[N+](C)(C)CCCCCCCC [sT-8,8,8,1]
6. C=CC[N+](CCC[N+](C)(C)CCCCCCCCCCCCCCCC)(CCC[N+](C)(C)CCCCCCCCCCCCCCCC)CCC[N+](C)(C)CCCCCCCCCCCCCCCC [sT-16,16,16,3A]
7. CCCCCCCCCCC[N+](C)(C)CCC[N+](C)(CCC[N+](C)(C)CCCCCCCCCCC)CCC[N+](C)(C)CCCCCCCCCCC.[Br-].[Br-].[Br-].[I-] [sT-11,11,11,1]
8. C=CC[N+](CCC[N+](C)(C)CCCCCCCCCCCC)(CCC[N+](C)(C)CCCCCCCCCCCC)CCC[N+](C)(C)CCCCCCCCCCCC [sT-12,12,12,3A]

result:
1. 0.5
2. 8
3. 0.5
4. 1
5. 0.5
6. 4
7. 0.5
8. 1

Dear reader, for each entry below, please note its MIC SA.
1. C=CC[N+](CCC[N+](C)(C)CCCCCCCCCCCCCC)(CCC[N+](C)(C)CCCCCCCCCCCCCC)CCC[N+](C)(C)CCCCCCCCCCCCCC [sT-14,14,14,3A]
2. C=CC[N+](CCC[N+](C)(C)CCCCCCCCCCC)(CCC[N+](C)(C)CCCCCCCCCCC)CCC[N+](C)(C)CCCCCCCCCCC [sT-11,11,11,3A]

result:
2
0.5
